Test: NCI Yeast Anticancer Drug Screen. Data for the rad50 strain (AID 155)
Conditions: S. cerevisiae rad50 strain growth inhibition; at 50.0 µM
Compounds without any hit were thinned out: in the full panel of roughly 79,000, 15% have a hit. Active and inactive are the calls of the source. Cut-off read from the data, not from the text of the source: active = growth inhibition above about 70%; inactive = the rest.
The reply should be one of these categories: TRUE for active, FALSE for inactive

Cc1cc(Cl)cc2c1OCN(C)C2 ... TRUE
O=c1oc(-c2cccc(C(Cl)Cl)c2)ns1 ... TRUE
Cc1cc(C(=O)O)c(C)cc1SSc1cc(C)c(C(=O)O)cc1C ... FALSE

Ask: Please share the test call associated with CNC(=O)OCCC(OC(=O)NC)C1CCC2C3CC=C4CC(OC(=O)NC)CCC4(C)C3CCC12C (stereo unspecified) .
Reply: FALSE

Ask: Please share the test call associated with `FC(F)(F)c1[nH]nc(-c2ccc(Cl)cc2)c1N=NN1CCOCC1` .
Reply: TRUE

Ask: Please share the test call associated with `CC(=O)N(C)c1cc(NCc2ccccc2)ccc1OCc1ccccc1` .
Reply: TRUE
